- TARGET_UNDER_TEST: Bcl-xL, Q07817
- Sequence (Q07817 1-209): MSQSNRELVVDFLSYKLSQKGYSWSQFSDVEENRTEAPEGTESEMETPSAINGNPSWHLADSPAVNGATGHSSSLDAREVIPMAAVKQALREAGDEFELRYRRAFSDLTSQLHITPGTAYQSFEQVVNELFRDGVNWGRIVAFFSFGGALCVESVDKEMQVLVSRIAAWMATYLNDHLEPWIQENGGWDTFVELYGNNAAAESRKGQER
- PROTOCOL_SUMMARY: peptide SPOT array, c-Myc-tagged receptor at 1 uM or 100 nM, anti-c-Myc-Cy3
MEASURED_PARAMETER: SPOT signal as a fraction of Bim BH3's signal on the same receptor and array

Use the examples below as a reference point.
MSILTIASAVLEFVGDGIYNNTMGHV [TAP1]    0.06
MVLDPSLAEHLSHFGIDMLKMQKTDK [USP5]    0.07
VTLLSEVEKMLSNFGDCVQYKEIVKN [SYNE1]    0.11
FERVEQMCIQIKEVGDRVNYIKRSLQ [TRPM7]    0.34

P. PALLVHWAKCDQKMGRGLNSSYDQQE [RGPD2]
Q. NNDLSHIAGKLTYASQKYKNHIGTEI [HFM1]
R. RYRHGAPAEQLRHLLDMLTTKWATLQ [PLEKHH1]
# rank by SPOT signal as a fraction of Bim BH3's signal on the same receptor and array, ascending (min first) Returns: the labels listed in the requested order.
Q, P, R
(Q: 0.12, P: 0.38, R: 0.97)
